assay: Plasma and urine pharmacokinetics, Cycle 1; type: in vivo, Japanese patients; conditions: human, plasma, po, 40 mg
QUANTITY: AUC(0-inf) (ng·h/mL)
Report only the number, with the unit ng·h/mL understood.

Identify measured AUC(0-inf) associated with Nc1cc(F)ccc1NC(=O)c1ccc(CNC(=O)/C=C/c2cccnc2)cc1
7160

###

assay: Plasma and urine pharmacokinetics, Cycle 1; type: in vivo, Japanese patients; details: human, plasma, oral, 40 mg, Mean t1/2, 30 and 40 mg, Days 1 and 25
QUANTITY: half-life

Identify measured half-life associated with Nc1cc(F)ccc1NC(=O)c1ccc(CNC(=O)/C=C/c2cccnc2)cc1
17.1 to 21.6 h

###

assay: Plasma and urine pharmacokinetics, Cycle 1; assay type: in vivo, Japanese patients; conditions: human, plasma, po, 30 mg
QUANTITY: AUC(0-inf) (ng·h/mL)
Report only the number, with the unit ng·h/mL understood.

Identify measured AUC(0-inf) associated with Nc1cc(F)ccc1NC(=O)c1ccc(CNC(=O)/C=C/c2cccnc2)cc1 [HBI-8000, tucidinostat]
4000
